Entry source: patent US20260265249A1

- method.summary: Long-term/accelerated stability study (sealed in aluminum foil bags, 25° C./60% RH and 40° C./75% RH)
- Type: physicochemical
- condition.summary: 25° C.-60% RH, sealed aluminum foil bag, 1 month
metric.name: Purity (%)
Answers are plain numbers, in %.

Below is a list of molecules. For each, state its recorded Purity (%).
1. Cl.[2H]C([2H])([2H])Oc1cc(C#N)ccc1[C@@H]1C(C(N)=O)=C(C)Nc2c(C)cnc(OCC)c21 [crystal form I of hydrochloride]
2. O=C(O)/C=C\C(=O)O.[2H]C([2H])([2H])Oc1cc(C#N)ccc1[C@@H]1C(C(N)=O)=C(C)Nc2c(C)cnc(OCC)c21 [crystal form α of maleate]
3. Br.[2H]C([2H])([2H])Oc1cc(C#N)ccc1[C@@H]1C(C(N)=O)=C(C)Nc2c(C)cnc(OCC)c21 [crystal form I of hydrobromide]

1. 99.3
2. 99.8
3. 99.8

Specify Purity (%) for O=S(=O)(O)O.[2H]C([2H])([2H])Oc1cc(C#N)ccc1[C@@H]1C(C(N)=O)=C(C)Nc2c(C)cnc(OCC)c21 [crystal form a of sulfate] and stop.
99.7

====

- method.summary: Influencing factor stability study (open containers; light, high temperature, high humidity; 30 days)
- Format: physicochemical
- condition.summary: open container, 92.5% RH, 7 days
metric.name: Purity (%)
Numbers only, in %.

Completed entries (count: 3):
INSERT INTO results (molecule, test_value) VALUES
  ('[2H]C([2H])([2H])Oc1cc(C#N)ccc1[C@@H]1C(C(N)=O)=C(C)Nc2c(C)cnc(OCC)c21 [crystal form A]', 99.6),
  ('Br.[2H]C([2H])([2H])Oc1cc(C#N)ccc1[C@@H]1C(C(N)=O)=C(C)Nc2c(C)cnc(OCC)c21 [crystal form I of hydrobromide]', 99.7),
  ('O=C(O)/C=C\C(=O)O.[2H]C([2H])([2H])Oc1cc(C#N)ccc1[C@@H]1C(C(N)=O)=C(C)Nc2c(C)cnc(OCC)c21 [crystal form α of maleate]', 99.8);

Specify Purity for O=S(=O)(O)O.[2H]C([2H])([2H])Oc1cc(C#N)ccc1[C@@H]1C(C(N)=O)=C(C)Nc2c(C)cnc(OCC)c21 [crystal form a of sulfate] and stop.
99.6

====

- method.summary: Influencing factor stability study (open containers; light, high temperature, high humidity; 30 days)
- Type: physicochemical
- condition.summary: open container, 75% RH, 14 days
Would you kindly list Purity for each of these compounds?
Give bare numbers, in %.

Completed entries (count: 3):
INSERT INTO assay_data (compound, metric_name, test_value) VALUES
  ('O=C(O)/C=C\C(=O)O.[2H]C([2H])([2H])Oc1cc(C#N)ccc1[C@@H]1C(C(N)=O)=C(C)Nc2c(C)cnc(OCC)c21 [crystal form α of maleate]', 'Purity', 99.8),
  ('O=S(=O)(O)O.[2H]C([2H])([2H])Oc1cc(C#N)ccc1[C@@H]1C(C(N)=O)=C(C)Nc2c(C)cnc(OCC)c21 [crystal form a of sulfate]', 'Purity', 99.6),
  ('[2H]C([2H])([2H])Oc1cc(C#N)ccc1[C@@H]1C(C(N)=O)=C(C)Nc2c(C)cnc(OCC)c21 [crystal form A]', 'Purity', 99.7);

Alright, here's another compound for you.
Specify Purity for Br.[2H]C([2H])([2H])Oc1cc(C#N)ccc1[C@@H]1C(C(N)=O)=C(C)Nc2c(C)cnc(OCC)c21 [crystal form I of hydrobromide] and stop.
99.6
